- Target of assay: hMC5-R (human)
- Assay protocol: cell-based or functional assay
Measurement kind: cAMP EC50 (nM)
One number for each entry, in nM.

Illustrative cases are given below, each with its answer.
Hydantoin(C(O)-(Gly-Gly))-c(Cys-D-Ala-His-D-Phe-Arg-Trp-Cys)-NH2 (peptide): 201
Ac-Arg-c(Asp-His-D-Phe-Arg-Trp-Ala-Lys)-NH2 (peptide; unit assumed): 467
Hydantoin(C(O)-(Gly-Arg))-c(Cys-D-Ala-His-D-Phe-Arg-Trp-Cys)-NH2 (peptide): 3610

For Ac-c(Cys-Glu-His-D-2-Nal-Arg-Bal-Ala-Cys)-Pro-Pro-Lys-Asp-NH2 (peptide; unit assumed) the substance record lists cAMP EC50 as 177

====

- Target of assay: hMC3-R (human)
- Assay protocol: cell-based or functional assay
Could you please report measured cAMP Kb for the items listed next?
Numbers only, in nM.

Completed entries (count: 3):
Ac-hPhe-c(Asp-His-D-2-Nal-Arg-Trp-Gaba-Lys)-NH2 (peptide; unit assumed): 9.32
Ac-Cha-c(Asp-His-D-2-Nal-Arg-Trp-Gaba-Lys)-NH2 (peptide; unit assumed): 3.02
Ac-Arg-c(Cys-D-Ala-His-D-2-Nal-Arg-Trp-Cys)-NH2 (peptide; unit assumed): 5.72

The substance listed as Ac-Nle-c(Cys-D-Ala-His-D-2-Nal-Arg-Trp-Cys)-NH2 (peptide; unit assumed) has a reported cAMP Kb of 12.4
